Cited source for all entries: patent US20250027068

# Lookup of reported Enzyme Activity Endpoint Assay: IgG keyed by entry
- Target Or System: pooled human IgG (human IgG1, 2, 3 and 4)
Measured Parameter: Enzyme Activity Endpoint Assay: IgG

[[record]]
protein = "PRT-576 (protein) MANQEIRYSKATPSTITSVWTKGVTPPENFIYNEDVLHAPYLANQGWYDITKTFNGKDDLLCGAATAGNMLHWWFDQNKEQIERYLKKHPEKQKINFNGEQMFDVKEAIDTKDSQTNSKLFEYFKDKAFPYLSTKHLGVFPDHVIDMFINGYRLSLTNHGPTPVKEQTKDPRGGIFDAVFTRGDQSKLLTSRHDFKEKTLNEISDLIKQELTEGKALGLSHTYANVRINHVINLWGADFNAEGNLEAIYVTDSDSNASIGMKKYYVGVNSAGKVAISAKEIEGDNIGAQVLGLFTLSTGQDIWQQTNLEHHHHHH"
observed_value = "0 ng/µL"

[[record]]
protein = "PRT-416 (protein) MTITSVWTKGVTPPTPEDFRYNNEDVLHAPYVANQGWYDITKTFDGKDNLLCGAATAGNMLHWWFDQNKEEIERYLKKHPEKQKIIFNNQELFDVKAAIDTKDSQTNSKLFNYFRDKAFPNLSARQLGVMPDLVLDMFINGYYLNLPKTQSTDVNRPYQDKDKRGGIFDAVFTRGDQTTLLTARHDLKNKGLNEISDLIKQELTEGKALALSHTYANVRINHVINLWGADFDAEGNLIAIYVTDSDANASIGMKKYFVGVNANGKVAISAKKIEGDNIGAQVLGLFTLSTGQDIWQKLS"
observed_value = "96 ng/µL"

[[record]]
protein = "PRT-584 (protein) MANQEIRYSEETPKTITSVWTKGVTPPTNFIYNEDVLHAPYIANQGWYDITKTFNGKDDLLCGAATAGNMLHWWFDQNKEQIERYLKKHPEKQKINFNGEQMFDVKEAIDTKDSQTNSKLFEYFKDKAFPYLSTKHLGVFPDHVIDMFINGYRLSLTNHGPTPVKRQTKDPRGGIFDAVFTRGDQSKLLTSRHDFKEKTLNEISDLIKQELTEGKALGLSHTYANVRINHVINLWGADFNAEGNLEAIYVTDSDSNASIGMKKYYVGVNSAGKVAISAKEIEGDNIGAQVLGLFTLSTGQDIWEQTNLEHHHHHH"
observed_value = "51 ng/µL"

[[record]]
protein = "PRT-522 (protein) MITSVWTKGVTPPTDFIKGEDVFHAPYKAGQGWYDITKTFNGKDNLLCGAATAGNMLHWWFDQNKEEIEAYLKKHPEKQKIIFNNQELFDLKAVINTKDSQTNSALFNYFKDKAFPNLSARRLGVFPDLVLDMFINGYYLNVYKTQTTDVNRTYQTKDRRGGIFDAVFTRGVQSKLLTERHDFKEKTLKEISDLIKQELTEGKALGLSHTYANVRINHVINLWGADFDSNGNLEAIYVTDSDTNASIGMKKYFVGVNSAGKVAISAKEIKEDNIGAQVLGLFTLSTGQDIWNQTNLEHHHHHH"
observed_value = "0 ng/µL"

